SYSTEM_NAME: human GluN1/GluN2B (Homo sapiens (Human), UniProt Q05586+Q13224)
Sequence (Q13224 27-1484, other chains not shown): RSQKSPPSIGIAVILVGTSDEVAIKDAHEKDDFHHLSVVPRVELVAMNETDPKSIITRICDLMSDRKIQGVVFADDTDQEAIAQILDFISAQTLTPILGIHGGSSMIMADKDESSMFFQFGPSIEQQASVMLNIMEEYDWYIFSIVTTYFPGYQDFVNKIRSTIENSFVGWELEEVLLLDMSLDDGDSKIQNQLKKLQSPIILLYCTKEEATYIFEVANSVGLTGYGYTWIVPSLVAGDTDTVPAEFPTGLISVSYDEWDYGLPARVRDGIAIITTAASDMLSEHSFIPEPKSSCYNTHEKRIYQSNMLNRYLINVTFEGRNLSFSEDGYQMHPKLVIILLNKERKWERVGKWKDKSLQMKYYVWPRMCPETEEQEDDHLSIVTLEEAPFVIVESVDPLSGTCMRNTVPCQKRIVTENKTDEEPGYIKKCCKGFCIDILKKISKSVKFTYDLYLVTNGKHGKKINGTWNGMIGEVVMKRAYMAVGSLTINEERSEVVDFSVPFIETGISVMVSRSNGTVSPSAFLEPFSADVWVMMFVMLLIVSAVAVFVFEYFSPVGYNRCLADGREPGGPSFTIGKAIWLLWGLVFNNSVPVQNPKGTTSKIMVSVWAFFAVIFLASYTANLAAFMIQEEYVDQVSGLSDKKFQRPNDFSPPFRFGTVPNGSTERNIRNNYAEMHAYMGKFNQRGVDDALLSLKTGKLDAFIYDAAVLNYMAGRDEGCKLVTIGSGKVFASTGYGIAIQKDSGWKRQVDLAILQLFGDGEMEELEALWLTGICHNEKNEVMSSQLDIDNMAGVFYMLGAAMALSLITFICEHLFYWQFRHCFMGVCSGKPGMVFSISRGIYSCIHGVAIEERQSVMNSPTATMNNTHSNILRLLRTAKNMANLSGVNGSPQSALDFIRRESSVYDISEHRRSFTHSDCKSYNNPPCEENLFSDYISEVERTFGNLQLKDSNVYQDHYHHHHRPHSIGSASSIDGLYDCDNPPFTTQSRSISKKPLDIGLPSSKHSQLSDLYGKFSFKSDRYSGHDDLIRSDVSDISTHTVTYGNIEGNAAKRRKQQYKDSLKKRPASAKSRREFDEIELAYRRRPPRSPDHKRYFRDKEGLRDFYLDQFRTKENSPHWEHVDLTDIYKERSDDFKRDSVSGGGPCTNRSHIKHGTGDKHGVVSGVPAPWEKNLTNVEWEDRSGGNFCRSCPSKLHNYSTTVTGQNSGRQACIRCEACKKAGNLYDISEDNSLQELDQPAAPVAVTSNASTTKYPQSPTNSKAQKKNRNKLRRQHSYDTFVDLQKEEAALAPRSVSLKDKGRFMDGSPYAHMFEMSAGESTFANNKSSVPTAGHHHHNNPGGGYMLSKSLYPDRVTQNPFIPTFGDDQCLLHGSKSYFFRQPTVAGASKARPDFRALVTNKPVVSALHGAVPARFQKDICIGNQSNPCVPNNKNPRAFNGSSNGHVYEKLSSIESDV
ASSAY_OVERVIEW: Two electrode voltage-clamp recordings from Xenopus laevis oocytes, GluN2B potency and pH dependence
Type: cell-based
EXPERIMENTAL_PARAMETERS: pH 6.9; read-out: IC50 value at pH 6.9
Listed below: pIC50 values for each entry.
Scale explanation: pIC50 corresponds to minus log10 of a concentration expressed in moles per litre.

- O=C1CCc2cc(OC[C@H](O)CN3CCN(c4ccc(C(F)(F)F)cc4)CC3)ccc2N1: 7.64

**Query** Form entry - test system: human GluN1/GluN2B (Homo sapiens (Human), UniProt Q05586+Q13224); read-out: pIC50; compound: `O=C1CCc2cc(OC[C@@H](O)CN3CCN(c4ccc(C(F)(F)F)cc4)CC3)ccc2N1`
**Result** 6.95
